# Test target: PKC isoenzyme α (Homo sapiens, UniProt P17252)
# Construct: made in house; host or cells: baculovirus-insect cell expression system
# Assay protocol: Protein kinase C inhibition assay, PKC isoenzyme α
# Format: biochemical
# Details: IC50 PKC α
Result type: IC50 (µM)
Provide the reading as a plain figure in µM.

For `O=C1C(Nc2ccc(S(=O)(=O)NCCNc3ccc([N+](=O)[O-])cn3)cc2)=CC(=Nc2ccc(S(=O)(=O)NCCNc3ccc([N+](=O)[O-])cn3)cc2)c2ccccc21` on PKC isoenzyme α (Homo sapiens, UniProt P17252), measured IC50 was 85

----------
For each of the molecules below, state its pIC50.
# Test target: PKC isoenzyme δ (Homo sapiens, UniProt Q05655)
# Construct: made in house; host or cells: baculovirus-insect cell expression system
# Sequence (Q05655 whole entry): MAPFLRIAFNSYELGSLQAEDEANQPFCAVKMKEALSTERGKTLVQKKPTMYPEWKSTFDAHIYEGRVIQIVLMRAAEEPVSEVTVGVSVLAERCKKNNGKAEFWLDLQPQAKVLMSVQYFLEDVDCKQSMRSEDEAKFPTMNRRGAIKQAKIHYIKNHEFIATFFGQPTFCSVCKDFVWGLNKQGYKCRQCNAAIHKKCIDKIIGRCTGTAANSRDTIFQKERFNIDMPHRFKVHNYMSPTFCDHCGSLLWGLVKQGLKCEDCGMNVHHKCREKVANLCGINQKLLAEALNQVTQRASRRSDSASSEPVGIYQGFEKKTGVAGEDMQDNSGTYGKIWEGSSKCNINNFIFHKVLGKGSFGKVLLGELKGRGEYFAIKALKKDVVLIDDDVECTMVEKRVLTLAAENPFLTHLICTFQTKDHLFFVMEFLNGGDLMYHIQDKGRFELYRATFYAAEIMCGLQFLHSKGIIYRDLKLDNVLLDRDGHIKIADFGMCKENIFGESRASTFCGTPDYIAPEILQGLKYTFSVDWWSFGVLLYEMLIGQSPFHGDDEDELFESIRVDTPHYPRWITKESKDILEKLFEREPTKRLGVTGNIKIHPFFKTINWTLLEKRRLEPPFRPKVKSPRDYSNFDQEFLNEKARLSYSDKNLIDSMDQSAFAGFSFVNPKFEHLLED
# Assay protocol: Protein kinase C inhibition assay, PKC isoenzyme δ
# Format: biochemical
# Details: read-out: IC50 PKC δ
Quick note: pIC50 values are minus log10 of concentrations in mol/L.

In plain terms, O=C1C(Nc2ccc(S(=O)(=O)Nc3ccc(Cl)nn3)cc2)=CC(=Nc2ccc(S(=O)(=O)Nc3ccc(Cl)nn3)cc2)c2ccccc21 [Compound 6l] has a documented pIC50 of 4.30

In plain terms, Cc1cc(C)nc(NS(=O)(=O)c2cc(N=C3C=C(Nc4ccc(C)c(S(=O)(=O)Nc5cc(C)cc(C)n5)c4)C(=O)c4ccccc43)ccc2C)c1 [Compound 6ag] has a documented pIC50 of 4.31

In plain terms, Cc1nnc(NS(=O)(=O)c2ccc(N=C3C=C(Nc4ccc(S(=O)(=O)Nc5nnc(C)s5)cc4)C(=O)c4ccccc43)cc2)s1 [Compound 3e] has a documented pIC50 of 4.37

In plain terms, `Cc1cc(NS(=O)(=O)c2ccc(N=C3C=C(Nc4ccc(S(=O)(=O)Nc5cc(C)on5)cc4)C(=O)c4ccccc43)cc2)no1` has a documented pIC50 of 4.47

In plain terms, O=C1C(Nc2ccc(S(=O)(=O)Nc3ccccn3)cc2)=CC(=Nc2ccc(S(=O)(=O)Nc3ccccn3)cc2)c2ccccc21 [Compound 6i] has a documented pIC50 of 3.92

----------
# Test target: PKC isoenzyme δ (Homo sapiens, UniProt Q05655)
# Construct: made in house; host or cells: baculovirus-insect cell expression system
# Assay protocol: Protein kinase C inhibition assay, PKC isoenzyme δ
# Type: biochemical
# Details: read-out: IC50 PKC δ
Result type: pIC50
Quick note: pIC50 values are minus log10 of concentrations in mol/L.

In plain terms, Cc1cc(C)nc(NS(=O)(=O)c2ccc(N=C3C=C(Nc4ccc(S(=O)(=O)Nc5nc(C)cc(C)n5)cc4)C(=O)c4ccccc43)cc2)n1 [Compound 3c] has a documented pIC50 of 4.14

In plain terms, CCCCCCCCCCCCCCCCNS(=O)(=O)c1ccc(N=C2C=C(Nc3ccc(S(=O)(=O)NCCCCCCCCCCCCCCCC)cc3)C(=O)c3ccccc32)cc1 [Compound 3o] has a documented pIC50 of 3.86

In plain terms, Cc1cc(NS(=O)(=O)c2ccc(N=C3C=C(Nc4ccc(S(=O)(=O)Nc5cc(C)nc(C)n5)cc4)C(=O)c4ccccc43)cc2)nc(C)n1 [Compound 3d] has a documented pIC50 of 4.02

----------
# Tested on: normal human epidermal keratinocyte (NHEK) cells
# Assay protocol: Human Keratinocyte Inhibition (3H TdR Assay)
# Type: cell-based
# Details: Homo sapiens, 24 h incubation, 3H-thymidine
For each of the compounds below, state its pIC50.
Quick note: pIC50 values are minus log10 of concentrations in mol/L.

In plain terms, O=C1C(Nc2ccc(S(=O)(=O)Nc3ccc(Cl)nn3)cc2)=CC(=Nc2ccc(S(=O)(=O)Nc3ccc(Cl)nn3)cc2)c2ccccc21 [Compound 3l] has a documented pIC50 of 5.37

In plain terms, Cc1ccnc(NS(=O)(=O)c2ccc(N=C3C=C(Nc4ccc(S(=O)(=O)Nc5nccc(C)n5)cc4)C(=O)c4ccccc43)cc2)n1 [Compound 3f] has a documented pIC50 of 5.92

In plain terms, Cc1cc(C)nc(NS(=O)(=O)c2cc(N=C3C=C(Nc4ccc(C)c(S(=O)(=O)Nc5cc(C)cc(C)n5)c4)C(=O)c4ccccc43)ccc2C)c1 [Compound 6ag] has a documented pIC50 of 6.30

In plain terms, Cc1cc(NS(=O)(=O)c2ccc(N=C3C=C(Nc4ccc(S(=O)(=O)Nc5cc(C)nc(C)n5)cc4)C(=O)c4ccccc43)cc2)nc(C)n1 [Compound 3d] has a documented pIC50 of 5.70

In plain terms, Cc1nnc(NS(=O)(=O)c2ccc(N=C3C=C(Nc4ccc(S(=O)(=O)Nc5nnc(C)s5)cc4)C(=O)c4ccccc43)cc2)s1 [Compound 3e] has a documented pIC50 of 5.06

In plain terms, COc1cnc(NS(=O)(=O)c2ccc(N=C3C=C(Nc4ccc(S(=O)(=O)Nc5ncc(OC)cn5)cc4)C(=O)c4ccccc43)cc2)nc1 [Compound 3h] has a documented pIC50 of 6.05

In plain terms, CCCCCCCCCCCCCCCCNS(=O)(=O)c1ccc(N=C2C=C(Nc3ccc(S(=O)(=O)NCCCCCCCCCCCCCCCC)cc3)C(=O)c3ccccc32)cc1 [Compound 3o] has a documented pIC50 of 5.42

In plain terms, O=C1C(Nc2ccc(S(=O)(=O)Nc3cnc4ccccc4n3)cc2)=CC(=Nc2ccc(S(=O)(=O)Nc3cnc4ccccc4n3)cc2)c2ccccc21 [Compound 3m] has a documented pIC50 of 6.40

In plain terms, Cc1cc(C)nc(NC(=O)c2ccc(N=C3C=C(Nc4ccc(C(=O)Nc5cc(C)cc(C)n5)cc4)C(=O)c4ccccc43)cc2)c1 [Compound 3ah] has a documented pIC50 of 5.85

In plain terms, O=C1C(Nc2ccc(S(=O)(=O)NCCNc3ccc([N+](=O)[O-])cn3)cc2)=CC(=Nc2ccc(S(=O)(=O)NCCNc3ccc([N+](=O)[O-])cn3)cc2)c2ccccc21 [Compound 3ac] has a documented pIC50 of 7.10

In plain terms, Cc1cc(C)nc(NC(=O)c2ccc(N=C3C=C(Nc4ccc(C(=O)Nc5nc(C)cc(C)n5)cc4)C(=O)c4ccccc43)cc2)n1 [Compound 3ai] has a documented pIC50 of 6.80

In plain terms, O=C1C(Nc2ccc(S(=O)(=O)Nc3ncccn3)cc2)=CC(=Nc2ccc(S(=O)(=O)Nc3ncccn3)cc2)c2ccccc21 [Compound 3k] has a documented pIC50 of 5.74

In plain terms, Cc1noc(NS(=O)(=O)c2ccc(N=C3C=C(Nc4ccc(S(=O)(=O)Nc5onc(C)c5C)cc4)C(=O)c4ccccc43)cc2)c1C [Compound 3b] has a documented pIC50 of 4.94
